Values compiled from the supplement of paper PMC8728848.

Molecular target: GlcNAc(a1-4)Gal(b1-4)GlcNAc(b1-3)Gal(b1-4)Glc
Experiment: glycan array binding signal (z-score within array); higher = stronger binding
Settings: glycan notation: IUPAC condensed, linker removed
Shown is part of a subset that was picked to be rich in the strongest signals.
Is glycan array binding signal (z-score) at least -0.4? Then criterion met. If not, criterion not met.

binder	classification
LCA (Lens culinaris), P02870 (protein) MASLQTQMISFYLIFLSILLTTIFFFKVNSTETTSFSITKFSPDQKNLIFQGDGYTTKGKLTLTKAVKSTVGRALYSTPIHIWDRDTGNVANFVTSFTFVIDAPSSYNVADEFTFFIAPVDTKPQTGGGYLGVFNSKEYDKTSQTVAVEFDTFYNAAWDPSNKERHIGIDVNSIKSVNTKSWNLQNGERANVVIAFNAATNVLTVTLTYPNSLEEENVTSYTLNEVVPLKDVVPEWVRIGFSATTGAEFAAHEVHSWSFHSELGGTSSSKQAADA	criterion met
ArathEULS3 (Arabidopsis thaliana), Q945P1 (protein) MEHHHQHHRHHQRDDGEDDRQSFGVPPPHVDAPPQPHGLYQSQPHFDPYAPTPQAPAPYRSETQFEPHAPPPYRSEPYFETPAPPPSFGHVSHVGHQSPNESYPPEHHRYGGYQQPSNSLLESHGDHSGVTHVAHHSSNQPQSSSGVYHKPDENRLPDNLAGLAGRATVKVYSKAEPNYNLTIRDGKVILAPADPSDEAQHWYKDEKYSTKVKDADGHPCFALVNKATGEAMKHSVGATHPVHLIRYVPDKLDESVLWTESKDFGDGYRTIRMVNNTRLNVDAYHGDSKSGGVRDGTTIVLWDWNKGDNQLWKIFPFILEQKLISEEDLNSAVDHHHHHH	criterion met
HHL-1 (Homo sapiens), P07306 (protein) TKEYQDLQHLDNEESDHHQLRKGPPPPQPLLQRLCSGPRLLLLSLGLSLLLLVVVCVIGSQNSQLQEELRGLRETFSNFTASTEAQVKGLSTQGGNVGRKMKSLESQLEKQQKDLSEDHSSLLLHVKQFVSDLRSLSCQMAALQGNGSERTCCPVNWVEHERSCYWFSRSGKAWADADNYCRLEDAHLVVVTSWEEQKFVQHHIGPVNTWMGLHDQNGPWKWVDGTDYETGFKNWRPEQPDDWYGHGLGGGEDCAHFTDDGRWNDDVCQRPYRWVCETELDKASQEPPLL	criterion not met
Cohesin-hDCIR (Homo sapiens) (protein) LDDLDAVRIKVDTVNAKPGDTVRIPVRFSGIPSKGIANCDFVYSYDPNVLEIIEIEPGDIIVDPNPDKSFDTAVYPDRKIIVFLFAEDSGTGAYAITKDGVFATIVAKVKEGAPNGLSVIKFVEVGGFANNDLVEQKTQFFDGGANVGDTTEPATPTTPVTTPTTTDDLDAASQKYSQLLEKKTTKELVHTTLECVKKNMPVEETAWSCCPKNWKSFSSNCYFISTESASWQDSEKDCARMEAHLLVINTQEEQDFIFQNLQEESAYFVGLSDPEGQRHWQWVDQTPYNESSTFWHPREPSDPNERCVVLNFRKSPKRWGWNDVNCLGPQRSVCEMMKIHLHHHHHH	criterion not met
